Biological target: T1, αvβ3 integrin (soluble / detergent-solubilized) (UniProt P06756 31-1048; P05106 27-788)
T1 construct: also called integrin αvβ3; soluble αvβ3 integrin
T1 sequence (P06756 31-1048, chain 1 of 2): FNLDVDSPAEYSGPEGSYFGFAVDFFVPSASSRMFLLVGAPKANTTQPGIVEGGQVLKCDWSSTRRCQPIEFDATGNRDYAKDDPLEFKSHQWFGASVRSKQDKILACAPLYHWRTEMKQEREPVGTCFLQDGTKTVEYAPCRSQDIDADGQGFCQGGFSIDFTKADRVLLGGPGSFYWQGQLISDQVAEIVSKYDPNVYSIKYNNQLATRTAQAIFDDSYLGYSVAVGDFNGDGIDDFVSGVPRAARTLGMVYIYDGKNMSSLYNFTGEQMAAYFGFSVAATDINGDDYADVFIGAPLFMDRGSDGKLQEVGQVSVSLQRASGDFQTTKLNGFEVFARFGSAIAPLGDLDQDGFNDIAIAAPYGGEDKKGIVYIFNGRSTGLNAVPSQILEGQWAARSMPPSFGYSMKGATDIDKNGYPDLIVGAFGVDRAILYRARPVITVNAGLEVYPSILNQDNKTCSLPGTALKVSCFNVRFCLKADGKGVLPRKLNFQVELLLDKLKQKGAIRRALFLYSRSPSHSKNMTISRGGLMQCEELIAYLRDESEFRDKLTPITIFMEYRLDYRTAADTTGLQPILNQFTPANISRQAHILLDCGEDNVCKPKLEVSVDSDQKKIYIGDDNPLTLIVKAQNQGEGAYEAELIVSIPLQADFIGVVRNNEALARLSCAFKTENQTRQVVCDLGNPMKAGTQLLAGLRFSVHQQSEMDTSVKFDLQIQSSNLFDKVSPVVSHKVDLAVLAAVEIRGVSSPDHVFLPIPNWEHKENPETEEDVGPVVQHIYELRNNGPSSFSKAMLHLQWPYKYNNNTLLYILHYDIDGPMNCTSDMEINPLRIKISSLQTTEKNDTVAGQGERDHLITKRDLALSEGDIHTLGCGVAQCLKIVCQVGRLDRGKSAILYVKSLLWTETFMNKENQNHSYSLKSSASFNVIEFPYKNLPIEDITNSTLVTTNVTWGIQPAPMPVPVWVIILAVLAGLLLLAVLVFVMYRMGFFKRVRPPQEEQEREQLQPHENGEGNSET
T1 sequence (P05106 27-788, chain 2 of 2): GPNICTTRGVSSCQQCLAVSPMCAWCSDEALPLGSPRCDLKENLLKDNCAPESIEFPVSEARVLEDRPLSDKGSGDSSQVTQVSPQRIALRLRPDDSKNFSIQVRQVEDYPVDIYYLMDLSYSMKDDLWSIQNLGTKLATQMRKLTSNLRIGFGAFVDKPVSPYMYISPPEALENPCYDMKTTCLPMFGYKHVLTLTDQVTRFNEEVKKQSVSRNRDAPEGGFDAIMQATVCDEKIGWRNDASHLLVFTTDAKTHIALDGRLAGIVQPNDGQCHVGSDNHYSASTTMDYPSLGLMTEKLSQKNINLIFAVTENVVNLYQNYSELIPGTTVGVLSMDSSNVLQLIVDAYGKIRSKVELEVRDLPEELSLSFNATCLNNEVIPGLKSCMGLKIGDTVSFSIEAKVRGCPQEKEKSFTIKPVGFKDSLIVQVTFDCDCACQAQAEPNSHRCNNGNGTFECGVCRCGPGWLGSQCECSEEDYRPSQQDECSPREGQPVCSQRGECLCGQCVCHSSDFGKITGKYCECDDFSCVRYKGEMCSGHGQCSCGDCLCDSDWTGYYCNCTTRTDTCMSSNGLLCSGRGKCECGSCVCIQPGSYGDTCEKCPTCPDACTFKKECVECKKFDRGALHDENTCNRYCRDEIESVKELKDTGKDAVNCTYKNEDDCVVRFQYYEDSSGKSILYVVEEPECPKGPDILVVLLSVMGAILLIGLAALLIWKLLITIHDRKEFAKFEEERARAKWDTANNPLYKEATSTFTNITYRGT
Experiment: yeast display flow cytometry estimate; integrin not given
attribute.measured: Kd

What the record says about GCVTGRGDSPASSCKQDSDCLAGCVCGPNGFCG (also called FN-RGD; RDG-EETI #3) [RGD-EETI #3 (yeast-displayed)] : Kd is 100 to 200 nM

Just for reference, patent US20210023171A1 is where these values come from.
